The values you see were collected from the FLAb antibody collection (doi:10.7554/elife.23156).

B1: scFv; the commonest letter at each place (parent)
chain 1: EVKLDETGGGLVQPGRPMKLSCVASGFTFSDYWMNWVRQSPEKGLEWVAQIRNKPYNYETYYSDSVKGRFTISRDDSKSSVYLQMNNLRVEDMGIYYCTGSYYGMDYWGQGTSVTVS
chain 2: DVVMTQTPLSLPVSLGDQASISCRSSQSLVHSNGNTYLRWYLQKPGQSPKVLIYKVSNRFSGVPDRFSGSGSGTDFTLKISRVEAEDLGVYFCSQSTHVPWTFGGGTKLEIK

variants of: B1; assay: yeast surface expression (ratio to wild type); higher = more expressed; settings: format: scFv 4-4-20, heavy + light
Class key for yeast surface expression values: A: < 0.4; B: ≥ 0.4 and < 0.6; C: ≥ 0.6

variant_label: chain 1 Y102H Y103E
label_value: C
//
variant_label: chain 1 Y102W G109P
label_value: A
//
variant_label: chain 1 G100W D106C
label_value: B
//
variant_label: chain 1 D106W G109K
label_value: A
//
variant_label: chain 1 Y107K W108Q
label_value: C
//
variant_label: chain 1 Y32W M34N
label_value: A
//
variant_label: chain 1 M105Q W108E
label_value: B
//
variant_label: chain 1 Y103D
label_value: C
//
variant_label: chain 1 W36T V37D
label_value: A
//
variant_label: chain 1 F29A W36A
label_value: C
//
variant_label: chain 1 D106L G109S
label_value: B
//
variant_label: chain 1 D31A W36H
label_value: A
//
variant_label: chain 1 M34P V37T
label_value: A
//
variant_label: chain 1 G100K G109V
label_value: A
//
variant_label: chain 1 T28Y
label_value: C
//
variant_label: chain 1 T28S V37Q
label_value: C
//
variant_label: chain 1 G104Y M105L
label_value: B
//
variant_label: chain 1 Y102K W108S
label_value: B
//
variant_label: chain 1 Y32P N35Y
label_value: B
//
variant_label: chain 1 V37G
label_value: B
//
variant_label: chain 1 S101L Y103K
label_value: B
